protocol-notes: NCI Yeast Anticancer Drug Screen. Data for the mec2-1 strain (AID 157)
details: S. cerevisiae mec2-1 strain, at 50.0 µM, hits give high values
Compounds without any hit were thinned out: in the full panel of roughly 79,000, 15% have a hit. Calls of active or inactive are those of the source. No stated cut-off is given here; in the data, active means growth inhibition above about 70%; inactive means the rest.
parameter-measured: growth inhibition

1. CC(CC(CCC(=O)O)(c1ccccc1)c1ccccc1)N(C)C (configuration not stated) ... -4.7% (inactive)
2. CCCCOC(=O)c1ccc(NC(=O)CCl)cc1 ... 18.8% (inactive)
3. CCOC(=O)N[C@H]1CCc2cc(OC)c(OC)c(OC)c2-c2ccc(SC)c(=O)cc21 ... -16.5% (inactive)
4. Nc1c(O)c(S(=O)(=O)O)c(O)c2c1C(=O)c1ccccc1C2=O ... -2.7% (inactive)
5. OC(CCN1CCCCC1)(c1ccccc1)c1ccccc1 ... -21.9% (inactive)
6. CS(=O)CC(=N\O)/C(CS(C)=O)=N\O (configuration not stated) ... -4.45% (inactive)
7. CCN(CC)CCN1CNC(=S)NC1 ... -20.6% (inactive)
8. Clc1ccc(C(SCc2ccccc2)SCc2ccccc2)cc1 ... -46.8% (inactive)
9. CC1CC2C3CCC4=CC(=O)CCC4(C)C3CCC2(C)C1(O)C(=O)CO (configuration not stated) ... -0.8% (inactive)
10. O=S(=O)(O)c1cccnc1 ... 6% (inactive)
11. C1=NCCc2ccccc21 ... 3% (inactive)
12. O=C1CSc2ccccc2N1 ... -8.45% (inactive)
13. CC(C)C(=O)OCCOc1ccc(C(C)(C)C)cc1 ... 3.1% (inactive)
14. COC(CCCl)c1ccc(Cl)cc1 (configuration not stated) ... -43% (inactive)
15. O=[N+]([O-])c1ccc(-c2nc(N(CCO)CCO)c3ccccc3n2)o1 ... 69.8% (inactive)
16. Cc1ccc(C)c(CN(C)C)c1O ... -1.45% (inactive)
17. C=CCOc1ccc(Cl)cc1Cl ... -4.4% (inactive)
18. O=C(N/N=C\c1ccc(Cl)cc1Cl)c1ccncc1 ... 6.85% (inactive)
19. CSCC[C@@H]1C(=O)N(C)[C@H](C(C)(C)C)N1C(=O)c1ccccc1 ... -12.4% (inactive)
20. CN(C)CCOC(=O)Nc1ccc(Cc2ccc(NC(=O)OCCN(C)C)cc2)cc1 ... -25.2% (inactive)
21. CC(=O)N(C(C)=O)c1ccc(C)cc1 ... -18.9% (inactive)
22. CC(C)N(C(=O)c1ccccc1)C(C)C ... 26.2% (inactive)
23. ClCc1cccc2c(CCl)cccc12 ... -6.25% (inactive)
24. O=C1C=CC(=O)C2=C1CCCC2 ... 10.9% (inactive)
25. NNC(=O)N/N=C1\C(=O)N(c2nccs2)C(=O)C(=O)C1c1nc2ccccc2s1 (configuration not stated) ... -21.8% (inactive)
26. CCOC(OCC)C(=O)c1ccccc1 ... -19.9% (inactive)
27. CCOc1ccc(C(=O)O)cc1 ... -12.8% (inactive)

----------
protocol-notes: NCI Yeast Anticancer Drug Screen. Data for the cln2 rad14 strain (AID 165);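 further: 0% = growth equal to vehicle treated cultures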
details: S. cerevisiae cln2 rad14 strain, at 50.0 µM, hits give high values
Description: Growth inhibition of yeast strains with defined genetic alterations is measured as a screen for potential anti-cancer activity. Selected strains with alterations in DNA damage repair or cell cycle control were exposed to compounds and growth inhibition was measured relative to vehicle treated controls. The strain used in this assay is cln2 rad14
About 79,000 compounds went through this panel and 15% of them were active in at least one assay; those are over-represented in the sample as a whole.
# maps each entry to its growth inhibition
parameter-measured: growth inhibition (%)

1) CC(C)NC(=O)OCc1c(COC(=O)NC(C)C)c(-c2ccc(Cl)cc2)n2c1CCC2 ... 9.25
2) CCOC(=O)C(COS(C)(=O)=O)(COS(C)(=O)=O)C(=O)OCC ... -2.05
3) CC(=O)Nc1ccc(O)c(C)c1 ... -21.8
4) Nc1ncnc2c1ncn2C1OC(CO)C2OC21 (stereo unspecified) ... 12.5
5) COc1cc(OC)c2cc(C(=O)c3ccc(C#N)cc3)c(=O)oc2c1 ... 31
6) O=C(Nc1ccccc1)c1ccco1 ... -0.6
7) Nc1nc(N)nc(N2CCCCC2)n1 ... -41.2
8) C=CCC(OC(C)=O)c1ccc(OC)c(OC)c1 (stereo unspecified) ... -13.9
9) Nc1ncc([N+](=O)[O-])cn1 ... -13.8
10) CN1C(=O)NC(c2ccc(Cl)cc2)(c2ccc(Cl)cc2)C1=O ... -11.9
11) O=C(O)C1CCCN1C(=O)OCc1ccccc1 (stereo unspecified) ... -2.45

----------
protocol-notes: NCI Yeast Anticancer Drug Screen. Data for the cln2 rad14 strain (AID 165);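 further: 0% = growth equal to vehicle treated cultures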
details: S. cerevisiae cln2 rad14 strain, at 50.0 µM, hits give high values
The panel holds about 79,000 compounds, 15% with a hit somewhere; the sample as a whole holds those more often.
parameter-measured: growth inhibition (%)

1. C[n+]1cc2cc3c(cc2c2ccccc21)OCO3 ... 13.1
2. CCc1ccccc1C(=O)N(CC)CC ... 32
3. CCNc1ncnc2[nH]ncc12 ... -13.8
4. COC(=O)c1ccccc1C(=O)c1c(C)cc(C)cc1C ... -64
5. CCOC(OCC)C(=O)c1ccccc1 ... 9.2
6. CN1CCCN(C(c2ccccc2)c2ccc(Br)cc2)CC1 (centres undefined) ... 24.1
7. CC(=O)Nc1ccc(C(=O)c2ccc(S(=O)(=O)Nc3ccccc3)cc2)cc1 ... 16.9
8. CC(=O)NC(CCc1ccc(Cl)c(Cl)c1)c1cccc(O)c(=O)c1 (centres undefined) ... 63.7
9. CC(=O)OC(C)c1cccc(C#N)c1 (centres undefined) ... -8.9
10. COc1ccc2c(ccc[n+]2C)c1 ... 19.2
11. O=C1C=C(c2ccccc2)C(O)(c2ccccc2)C1 (centres undefined) ... 5.1
12. CCCCCCCCNC(=O)C(C)C ... -42.1
13. O=C1Nc2ccccc2/C1=C\c1ccccc1O ... 6.8
14. CN(C)c1ccc(O)c2c1CC1CC3C(N(C)C)C(=O)C(C(N)=O)=C(O)C3(O)C(=O)C1=C2O (centres undefined) ... 18.4
15. O=C(NC1CCCCC1)c1ccc(Cl)cc1 ... 12.7
16. COc1cc(N)c2ncccc2c1Cl ... -0.05
17. N#C/C(=C\c1ccc(C#N)cc1)C(=O)c1ccccc1 ... 19
18. CC(C)N(C(=O)c1ccccc1)C(C)C ... -20.1
19. Cc1cc(C)cc(OCC(=O)O)c1 ... -41
20. O=Cc1ccc(Cl)c(Cl)c1 ... -16.9
21. CCOC(=O)C(=O)CC(=O)c1ccccc1 ... -26.4
22. C[C@H](CCC[C@H](C)OS(=O)(=O)c1ccccc1)OS(=O)(=O)c1ccccc1 ... 4.55
23. CC(C)c1ccccc1NC(=O)N1CCC(C(C)C)CC1 ... -22.6
24. CC1CC2C3CCC4=CC(=O)CCC4(C)C3CCC2(C)C1(O)C(=O)CO (centres undefined) ... -44
25. CCOC(=O)c1ccc(NC(C)=O)o1 ... -23.1
26. Cc1cc(Cc2ccccc2)c(O)c(Cc2ccccc2)c1 ... 38
27. COc1cc(CC#N)c([N+](=O)[O-])cc1OC ... -39
28. CCNc1ccc2ccccc2c1N=Nc1ccc(N=Nc2ccccc2)cc1 ... 9.75
29. NC(=O)c1cc2c3ccccc3ccn2c1-c1ccccc1 ... 62.6
30. COc1nc2ccccc2s1 ... 10.9
31. Cc1ccc(Cc2ccc(C)cc2)cc1 ... 3
32. O=Cc1ccc(F)cc1 ... -13.1
33. Cc1c(Cl)cccc1N=C=S ... 11.5
34. CCC(C)c1c(N)n(S(=O)(=O)c2ccc(C)cc2)oc1=O (centres undefined) ... -25
35. Cc1ccc(C)c(CCO)c1 ... -2.9
36. CCOC(=O)c1cc(C)[nH]c(=O)c1C#N ... -5.1
37. S=c1nc(-c2ccccn2)c(-c2ccccn2)n[nH]1 ... 11
38. COc1ccc(NNS(=O)(=O)O)cc1 ... -10.8
39. CN(C)c1ccc2nc3ccc(=[N+](C)C)cc-3oc2c1 ... -250
40. CCOc1ccncc1[N+](=O)[O-] ... -7
41. O=C(OCc1ccccc1)n1nnc2ccccc21 ... -17.2
42. CCCCn1cnc2c(=O)[nH]cnc21 ... -14.8
43. OCCOc1ccc(-c2cc(-c3ccccn3)nc(-c3ccccn3)c2)cc1 ... 44.5
44. Clc1ccc(-c2noc(/C=C\c3ccccc3)n2)cc1 ... 12.1
45. Cc1ccc(N2C(=O)c3cccc4c(N)c(S(=O)(=O)O)cc(c34)C2=O)cc1 ... -6.8
46. CSCCC(NC(=O)C(Cl)Cl)C(=O)O (centres undefined) ... -49
47. COc1ccc(-c2csc(NC(=O)Nc3nc(-c4ccc(OC)cc4)cs3)n2)cc1 ... -8.35
48. Cc1ccc(S(=O)(=O)Oc2ccc3sc4c(CO)ccc(NCCN(C)C)c4c(=O)c3c2)cc1 ... 21.6
49. CSCC[C@@H]1C(=O)N(C)[C@H](C(C)(C)C)N1C(=O)c1ccccc1 ... 0.6
50. C=CC(C)C(C)(C)O (centres undefined) ... 4.25
51. Cc1ccc2nc(N)nnc2c1 ... 20.8
52. CC(CC(CCC(=O)O)(c1ccccc1)c1ccccc1)N(C)C (centres undefined) ... -0.1
53. C=C(C)COc1ccc(C(C)(C)C)cc1 ... 8.1
54. CC(=O)NCNC(C)=O ... -75.1
